Consider the following compounds and their measured MIC readings.
# System: Helicobacter pylori
# test_description: Activity against Helicobacter pylori (MIC, Columbia agar (Oxoid), growth period of 4 days)
# Assay type: cell-based
# run_parameters: 96 h, methodology of Tomoyuki Iwahi et al.
measured_property: MIC

compound_string=Cc1c(CC#N)[n+]2cccc(OCc3ccccc3)c2n1CCc1ccccc1 endpoint_value="≤ 10 µg/mL"
compound_string=Cc1c(C)[n+]2cccc(OCc3ccccc3)c2n1Cc1cc(F)cc(F)c1 endpoint_value="≤ 10 µg/mL"
compound_string=C#CCc1c(C)n(CCc2ccccc2)c2c(OCc3ccccc3)ccc[n+]12 endpoint_value="≤ 10 µg/mL"
compound_string=Cc1c(C)[n+]2cccc(OCc3ccccc3)c2n1Cc1ccc2ccccc2c1 endpoint_value="≤ 10 µg/mL"
compound_string=Cc1c(C)[n+]2cccc(OCc3ccccc3)c2n1Cc1ccc(-c2ccccc2)cc1 endpoint_value="≤ 10 µg/mL"
compound_string=COC(=O)c1ccc(Cn2c(C)c(C)[n+]3cccc(OCc4ccccc4)c23)cc1 endpoint_value="≤ 10 µg/mL"
compound_string=Cc1c(C)[n+]2cccc(OCc3ccccc3)c2n1Cc1cccc(C#N)c1 endpoint_value="≤ 10 µg/mL"
compound_string=Cc1c(C)[n+]2cccc(OCc3ccccc3)c2n1Cc1ccc(F)cc1 endpoint_value="≤ 10 µg/mL"
compound_string=Cc1c(C)[n+]2cccc(OCc3ccccc3)c2n1CCc1ccccc1 endpoint_value="≤ 10 µg/mL"

Source of measurements: patent US5824687A
